System: L1210 leukemia ip in BDF1 mice, survival T/C
Assay: NCI In Vivo Anticancer Drug Screen. Data for tumor model L1210 Leukemia (intraperitoneal) in B6D2F1 (BDF1) mice
Details: endpoint: mean survival time; dose: 100.0 mg/kg/injection; schedule: Q01DX009 (ip); vehicle: saline with Tween-80; higher = longer survival
Inconclusive results and toxic doses are left out.
Task for the reader: assign each of the following molecules its reported T/C.

Entry Cc1ccc(CSc2ssc(=S)c2-c2ccccc2)cc1 has what T/C?
101 % of control

Now try CCCCSCCC .
98 % of control

CCCCOC(=O)C1=C(C(=O)OCCCC)CCCC1 , same question.
98 % of control

Consider next the molecule C1=CCOCOC1 in the same way.
113 % of control

And then CCOC(=O)CC(=O)N/N=C(/C)C(=O)OCC , what is it?
94 % of control

Likewise for O=S(=O)(c1ccc(N=Nc2ncc[nH]2)cc1)N(CCCl)CCCl ?
94 % of control

Same thing, different molecule: O=C(O)c1cc(Br)c(Br)s1
105 % of control

Cool, now CC(C)C(=O)Nc1cccc(O)c1
90 % of control

Same for CSc1ccc(NC(=O)Nc2c(C)n(C)n(-c3ccccc3)c2=O)cc1
89 % of control

Follow-up item: Clc1nc2nc(C3CC3)[nH]c2nc1Cl
104 % of control

Another molecule: Cc1nc2c(NC(=O)C(F)(F)F)nn(C)c2nc1C
94 % of control

Proceed to CC(C)=CCC/C(C)=C/COC(=O)Cc1ccccc1
103 % of control

Try NCCCN1CCCN=C1C1=NCCCN1CCCN next.
96 % of control

Input CC1(C)C(=O)C(C)(C)C1=Nc1ccccc1
95 % of control

Entry to check: O=C1CC(=O)N(c2ccccc2)C(=O)N1
99 % of control

Proceed to CC(C)(C)C(C)(O)C(=O)O (centres undefined)
97 % of control

Please give the result for O=C(Nc1ccc2c(c1)Cc1cc(Br)ccc1-2)C(F)(F)F too.
97 % of control

What about this molecule? Nc1cccc2cc3ccccc3[n+]([O-])c12
103 % of control

Same lookup for BrCC(Br)CBr , please.
91 % of control

###

Tested on: L1210 leukemia ip in BDF1 mice, survival T/C
Experiment: NCI In Vivo Anticancer Drug Screen. Data for tumor model L1210 Leukemia (intraperitoneal) in B6D2F1 (BDF1) mice
Conditions: endpoint: mean survival time; dose: 200.0 mg/kg/injection; schedule: Q01DX001 (ip); vehicle: saline; higher = longer survival
Inconclusive results and toxic doses are left out.
I'd appreciate it if you could supply T/C values for the items below.

Query: T/C; subject: CCN(C(C)=O)c1ccc([N+](=O)[O-])cc1
96 % of control

// repeat for Cn1ccc[n+]1C and report
101 % of control

Also check CCOC1C=CC(O)C(CO)O1 (stereo unspecified)
98 % of control

Same read-out for O=C(CI)c1ccc[nH]1 ?
103 % of control

Another compound to check: O=C(CCCC(=O)NNC(=S)Nc1ccccc1)NNC(=S)Nc1ccccc1
97 % of control

What do we get for CCC(SC(CC)C(=O)O)C(=O)O (stereo unspecified) ?
94 % of control

// next record COc1ccc(/C=C2\NC(=O)NC2=O)cc1
93 % of control

And then COC(=O)C1=CCCCC(N2CCOCC2)=C1C(=O)OC , what is it?
101 % of control

# repeat for CS(=O)(=O)OCCN1C(=O)NC(c2ccccc2)(c2ccccc2)C1=O
94 % of control

Ok, now CC1Cn2ccc(=O)nc2S1 (stereo unspecified)
105 % of control

// repeat for Cc1ccccc1CCC(=O)OCC(=O)c1ccc(-c2ccccc2)cc1 and report
88 % of control

###

Test system: L1210 leukemia ip in BDF1 mice, survival T/C
Experiment: NCI In Vivo Anticancer Drug Screen. Data for tumor model L1210 Leukemia (intraperitoneal) in B6D2F1 (BDF1) mice
Details: endpoint: mean survival time; dose: 100.0 mg/kg/injection; schedule: Q04DX002 (ip); vehicle: saline; higher = longer survival
Toxic doses and inconclusive results are not listed.
Field: T/C. Provide a value for each of the molecules that follow.

Quick one: T/C of Nc1ccc(F)c(Cl)c1 ?
121 % of control

Another: COC1OC(COC(=S)SCc2ccccc2)C(O)C(O)C1O (centres undefined)
110 % of control

Repeat with C=CCP(c1ccccc1)c1ccccc1
98 % of control

Please give the result for Cc1ccc2nc(-c3ccc(N)cc3)sc2c1S(=O)(=O)O too.
92 % of control

###

System: L1210 leukemia ip in BDF1 mice, survival T/C
Assay: NCI In Vivo Anticancer Drug Screen. Data for tumor model L1210 Leukemia (intraperitoneal) in B6D2F1 (BDF1) mice
Details: endpoint: mean survival time; dose: 200.0 mg/kg/injection; schedule: Q04DX003 (ip); vehicle: saline; higher = longer survival
Inconclusive results and toxic doses are left out.
quantity: T/C

Please report the recorded T/C for CC(C)CN(CC(=O)N1CC(=O)Nc2ccccc21)CC(C)C .
95 % of control

Follow-up item: COC(=O)C(=O)NCc1cnccn1
107 % of control

Now consider C=CC(=O)N(C)OC and answer again.
104 % of control

One more compound: N#CC1CS(=O)(=O)C1
101 % of control

Item: O=C(/C=C/C(=O)NCc1ccccc1)NCc1ccccc1
103 % of control

Further, for CCOC(=O)C1CC2(Cl)C(Cl)=C(Cl)C1(Cl)C2(Cl)Cl (stereo not given) ?
94 % of control

Proceed to NOCc1ccc(CON)cc1
97 % of control

Let us now turn to CN(C)C(CCc1ccccc1)C(=O)O (stereo not given)
109 % of control

Now consider O=c1cccc[nH]1 .
91 % of control

Further, for CCNC(=O)NC1C(O)OC(CO)C(O)C1O (stereo not given) ?
99 % of control

And then O=C(Nc1cc(C(F)(F)F)ccc1Cl)c1ccc(Cl)cc1 , what is it?
114 % of control

Proceed to CC(C)(N)Cc1ccc(Cl)cc1
92 % of control

Also O=C(O)C1C(C2c3ccc(O)cc3Oc3cc(O)ccc32)C2(Cl)C(Cl)=C(Cl)C1(Cl)C2(Cl)Cl (stereo not given) ?
93 % of control

Record: CNC(=O)NCCOC(=O)NC
101 % of control

Next entry: CC(O)Cc1c(Cc2ccccc2)nc(N)[nH]c1=O (stereo not given)
97 % of control

###

Test system: L1210 leukemia ip in BDF1 mice, survival T/C
Test: NCI In Vivo Anticancer Drug Screen. Data for tumor model L1210 Leukemia (intraperitoneal) in B6D2F1 (BDF1) mice
Conditions: endpoint: mean survival time; dose: 200.0 mg/kg/injection; schedule: Q01DX001 (ip); vehicle: saline with Tween-80; higher = longer survival
Toxic doses and inconclusive results are not listed.
quantity: T/C

Name the reported T/C value associated with the compound COC(=O)CCC(C)C1CCC2C3CCC4CC(OC(C)=O)CCC4(C)C3CCC12C (centres undefined)
95 % of control

Follow-up item: CCNc1nc(N)nc2n[nH]nc12
94 % of control

Can you handle CCN(C(=O)c1ccccc1C)C(c1ccccc1)P(=O)(c1ccccc1)c1ccccc1 (centres undefined) next?
100 % of control

What do you have for O=C(CSc1cc(Cl)c(Cl)cc1Cl)Nc1cccc(Cl)c1 ?
98 % of control

###

Test system: L1210 leukemia ip in BDF1 mice, survival T/C
Assay: NCI In Vivo Anticancer Drug Screen. Data for tumor model L1210 Leukemia (intraperitoneal) in B6D2F1 (BDF1) mice
Conditions: endpoint: mean survival time; dose: 100.0 mg/kg/injection; schedule: Q04DX002 (ip); vehicle: saline with Tween-80; higher = longer survival
Inconclusive results and toxic doses are left out.
quantity: T/C

I am curious: what T/C value has been reported for CCC(Cl)COP(=O)(OCC(Cl)CC)O/C(C)=C(/C)P(=O)(OCC(Cl)CC)OCC(Cl)CC (stereo not drawn) ?
104 % of control

Also Cc1c2oc3c(C)ccc(C(=O)OCCN4CCCC4)c3nc-2c(C(=O)OCCN2CCCC2)c(N)c1=O , if possible.
98 % of control

Moving on to the next compound: O=C(Nc1cc(C(F)(F)F)ccc1Cl)c1ccccc1F
102 % of control

###

Test system: L1210 leukemia ip in BDF1 mice, survival T/C
Assay: NCI In Vivo Anticancer Drug Screen. Data for tumor model L1210 Leukemia (intraperitoneal) in B6D2F1 (BDF1) mice
Conditions: endpoint: mean survival time; dose: 200.0 mg/kg/injection; schedule: Q01DX001 (ip); vehicle: saline; higher = longer survival
Toxic doses and inconclusive results are not listed.
Give measured T/C for each item. Keep answers brief.

Checklist item: T/C tested on L1210 leukemia ip in BDF1 mice, survival T/C, entry Cc1cc2nc(Cc3nc4cc(C)c(C)cc4[nH]3)[nH]c2cc1C , value?
93 % of control

Similarly, O=C1NN=C(c2ccccc2)C1Cc1ccccc1 (stereo not given) ?
94 % of control

What do you get for Nc1nc2ncn(C3OC(CO)C(O)C3O)c2c(=O)[nH]1 (stereo not given) ?
104 % of control

Would you kindly repeat that for Cc1ccc(S(=O)(=O)OCCN(CCO)c2cn(C(c3ccccc3)(c3ccccc3)c3ccccc3)c(=O)n(C(c3ccccc3)(c3ccccc3)c3ccccc3)c2=O)cc1 ?
93 % of control

Another: Cc1ccc(S(=O)(=O)OC2C(SCc3ccccc3)OCC(OC(=O)c3ccccc3)C2OC(=O)c2ccccc2)cc1 (stereo not given)
88 % of control

And what about the compound O=S(=O)(C(Br)Br)C(Br)c1ccccc1 (stereo not given) ?
101 % of control

Continue with COCCOC(=O)c1ccc(C(N)=NC2CCCCC2)cc1
97 % of control

COC1OCC(OC(C)=O)C(NC(C)=O)C1OC(C)=O (stereo not given) , same question.
101 % of control

How about this compound: Cc1cccc(N2CCN(CC(O)COc3cccc4ccccc34)CC2)c1 (stereo not given)
98 % of control

Entry to check: Fc1ccc(NC(=S)Nc2ccc(F)cc2)cc1
120 % of control
